System: Schistosoma mansoni schistosomula (Liberian)
Assay: drug effect (1 - score/DMSO control score) (fraction); higher = more antischistosomal effect, active = 0.5 or more; extreme values may be limits of the assay
Details: 48 h; 10 µM
Please note: Fulfilled applies when drug effect is 0.2 or greater, and Not fulfilled applies otherwise.

>>> label("Oc1c(I)cc(I)c2cccnc12")
"Not fulfilled"
>>> label("O[C@@H](c1cc(C(F)(F)F)nc2c(C(F)(F)F)cccc12)[C@H]1CCCCN1")
"Fulfilled"
>>> label("COc1ccc(Cn2cnc3c(-c4ccco4)nc(Cl)nc32)cc1")
"Not fulfilled"
>>> label("Nc1nccc2ccc(-c3ccc4nccn4c3)cc12")
"Fulfilled"
>>> label("O=C(c1ccco1)N(CCCn1ccnc1)c1nc2c(Cl)cccc2s1")
"Fulfilled"
>>> label("CCc1nc2ccc(C(=O)NCc3ccc4c(c3)OCO4)cn2c1N(C)Cc1cccs1")
"Not fulfilled"
>>> label("CN1CCN(CCCOc2ncc(Nc3ncc(-c4ccc(C(F)(F)F)c(F)c4)nc3C(N)=O)cn2)CC1")
"Fulfilled"
>>> label("CCN(CC)CCCCCCNc1cc(OC)cc2c(C)ccnc12")
"Not fulfilled"
>>> label("CC(C)C(NC(=O)Cc1cccc2ccccc12)C(=O)Nc1cccc(C#N)c1 (configuration not stated)")
"Fulfilled"
>>> label("O=C1[C@@H](Oc2ccccc2)[C@@H](c2ccc(Cl)cc2)N1CCn1cnc2c(NCc3ccccc3)ncnc21")
"Not fulfilled"
>>> label("C[C@H]1COc2c(N3CCN(C)CC3)c(F)cc3c(=O)c(C(=O)O)cn1c23")
"Not fulfilled"
>>> label("O=C(COc1cccc(F)c1)Nc1nc(-c2ccccn2)cs1")
"Not fulfilled"
>>> label("CCCS(=O)(=O)N1CCC(CO)(Cc2ccccc2C(F)(F)F)CC1")
"Fulfilled"
>>> label("CC(=O)Oc1ccccc1C(=O)Nc1ncc([N+](=O)[O-])s1")
"Fulfilled"
>>> label("Cc1cnc(N2CCN[C@@H](Cc3ccccc3)C2)nc1Oc1ccc(-n2ccnc2)cc1")
"Fulfilled"
>>> label("C[C@]1(O)C[C@@H](c2nc(-c3ccc4ccc(-c5ccccc5)nc4c3)c3c(N)nccn32)C1")
"Not fulfilled"
>>> label("N#Cc1nc(-c2ccccc2F)oc1NCCc1ccccc1")
"Not fulfilled"
>>> label("CC(C(=O)Nc1ccc2oc(-c3ccncc3)nc2c1)c1ccccc1 (configuration not stated)")
"Fulfilled"
>>> label("CN1CCN(S(=O)(=O)c2ccc(-c3ccc4c(Nc5ccc6nn[nH]c6c5)ccnc4c3)cc2)CC1")
"Not fulfilled"
>>> label("COc1cccc(-c2cc3c(Nc4cccnc4)nccc3[nH]2)c1")
"Not fulfilled"
